target: Nucleotide-binding oligomerization domain-containing protein 1 (Homo sapiens); experiment: Antagonist activity at human NOD1 expressed in HEK-blue cells assessed as inhibition of C12-iE-DAP-stimulated cell activation at 5 uM preincubated for 3 hrs followed by C12-iE-DAP addition measured after 20 hrs by SEAP reporter gene assay; format: cell-based
Endpoint: inhibition (%)

Record smiles | Test system | Quantity unit | Quantitative result
COC(=O)CC[C@H]1NC(=O)c2cc(Oc3cccc(N(C)C)c3)c(NC(=O)CCCc3ccccc3)cc2NC1=O | Nucleotide-binding oligomerization domain-containing protein 1 (Homo sapiens) | % | 22.2
COC(=O)CC[C@H]1NC(=O)c2cc(Oc3cccc(N(C)C)c3)c(NC(=O)COCc3ccc(Cl)cc3Cl)cc2NC1=O | Nucleotide-binding oligomerization domain-containing protein 1 (Homo sapiens) | % | 59.5
COC(=O)CC[C@H]1NC(=O)c2cc(Oc3cccc(N(C)C)c3)c(NC(=O)COCc3ccc(F)c(F)c3)cc2NC1=O | Nucleotide-binding oligomerization domain-containing protein 1 (Homo sapiens) | % | 83.7

I = COC(=O)CC[C@H]1NC(=O)c2cc(Oc3cccc(N(C)C)c3Cl)c(NC(=O)COCc3ccc(Cl)cc3)cc2NC1=O
II = CCCCCCCCCCCCNC(=O)CC[C@H]1NC(=O)c2cc(Oc3cccc(N(C)C)c3)c(NC(=O)COCc3ccccc3)cc2NC1=O
Identify the entry with the smaller inhibition: I or II . I would appreciate it if you answered with the label of your choice.
I
(I: 21.9%, II: 37.1%)
